System: 786-0 renal
Assay: NCI-60 one-dose screen, 48 h (100 = growth as untreated, 0 = no growth, -100 = all killed)
Settings: 10 µM unless noted
About 83,000 compounds went through this panel and 20% of them were active in at least one assay; those are over-represented in the sample as a whole.
Quick reference: growth of the listed items.
I only need the number, in %, no unit after it.

// worked examples, growth included
compound: O=S(OO)c1cc(Cl)c(O)c(Cl)c1 (stereo not drawn)
growth [%]: 97.1
//
compound: O=C(CBr)OCCOC(=O)CBr
growth [%]: 24.4
//
compound: Cc1cc(C(C)(C)C)ccc1O
growth [%]: 111

GET /value?item= C[C@]12CCC3[C@@H](C[C@@H]4SC(Nc5ccccc5)=N[C@@]45CC(=O)CC[C@]35C)[C@@H]1CCC2=O (stereo partly drawn) &field=growth returns -45

GET /value?item= O=C1CN2CCC1CC2 &field=growth returns 88.9

GET /value?item= Nc1cccnc1 &field=growth returns 109

GET /value?item= O=C=Nc1ccc(Br)cc1 &field=growth returns 95.5

GET /value?item= N#CCC(=O)c1ccccc1 &field=growth returns 107

GET /value?item= CNC(=O)O/N=C(\SC)C(=O)N(C)C &field=growth returns 105
